Catalogue of melting point values

Check out these entries, answers already filled in.
c1nc(N2CCCCC2)c2ccn(CCn3cc(COc4ccc(OCc5cn(CCn6ccc7c(N8CCCCC8)ncnc76)nn5)cc4)nn3)c2n1    185 to 187 °C
c1nc(N2CCCC2)c2ccn(CCn3cc(CCCc4cn(CCn5ccc6c(N7CCCC7)ncnc65)nn4)nn3)c2n1    170 to 172 °C
c1nc(N2CCCC2)c2ccn(CCn3cc(COc4ccc(OCc5cn(CCn6ccc7c(N8CCCC8)ncnc76)nn5)cc4)nn3)c2n1    193 to 195 °C

Alright, here's another molecule for you.
Query: Suppose we examine the molecule C#CCOCc1cn(CCn2cnc3c(N)ncnc32)nn1 [11h] ; what melting point value has been reported?
Response: 191 to 193 °C
